Reported Activity by item:
# Species on record: Rattus norvegicus
# ASSAY COMMENT: Compound was tested for its antidiuretic activity
# Assay type: functional, Urine
Enter your answer as a number in units/mg; do not include the unit.

Take a look at these entries with their results.
>  <MOLECULE>
N=C(N)NCCC[C@@H](NC(=O)[C@@H]1CCCN1C(=O)[C@@H]1CSSCCC(=O)N[C@@H](Cc2ccc(O)cc2)C(=O)N[C@@H](Cc2ccccc2)C(=O)N[C@@H](CCC(N)=O)C(=O)N[C@@H](CC(N)=O)C(=O)N1)C(=O)NCC(N)=O (stereo in doubt; form 1) [DESMOPRESSIN]

>  <Activity (units/mg)>
1740

$$$$
>  <MOLECULE>
CCOc1ccc(C[C@@H]2NC(=O)CCSSC[C@@H](C(=O)N3CCC[C@H]3C(=O)N[C@H](CCCN=C(N)N)C(=O)NCC(N)=O)NC(=O)[C@H](CC(N)=O)NC(=O)[C@H](CCC(N)=O)NC(=O)[C@H](Cc3ccccc3)NC2=O)cc1

>  <Activity (units/mg)>
30

$$$$
>  <MOLECULE>
N=C(N)NCCC[C@@H](NC(=O)[C@@H]1CCCN1C(=O)[C@@H]1CSSCCC(=O)N[C@@H](Cc2ccc(O)cc2)C(=O)N[C@@H](Cc2ccccc2)C(=O)N[C@@H](CCC(N)=O)C(=O)N[C@@H](CC(N)=O)C(=O)N1)C(=O)NCC(N)=O (stereo in doubt; form 2) [DESMOPRESSIN]

>  <Activity (units/mg)>
1200

$$$$

Field: next molecule
**Q:** Give reported Activity value for COc1ccc(C[C@@H]2NC(=O)CCSSC[C@@H](C(=O)N3CCC[C@H]3C(=O)N[C@H](CCCN=C(N)N)C(=O)NCC(N)=O)NC(=O)[C@H](CC(N)=O)NC(=O)[C@H](C(C)C)NC(=O)[C@H](Cc3ccccc3)NC2=O)cc1
**A:** 1740
